Experiment: A CellTox Green Cytotoxicity Assay to monitor cytotoxicity in HepG2 cells - 24 hour (AID 1224878); further: nearly all actives have a fitted effect of over 45% in size
Details: CellTox Green fluorescence; series mostly up to 76.8 µM
Results filed as inconclusive are left out. The source made the active and inactive calls. The call rests on the fitted dose curve; in most records, active means well fitted activation curve with a large enough effect in the repeat runs; inconclusive means weak or mixed curves; inactive means flat fitted curve, though single readings scatter.
Answer with one of the outcomes given here: Y = active, N = inactive

Request: Just curious, what result did `CC(C)(C)C1=CC(=O)C(C(C)(C)C)=CC1=O` get here?
Response: N

Request: Just curious, what result did CCC(C)(C)c1ccc(CC(C)CN2C[C@@H](C)O[C@@H](C)C2)cc1 (stereo partly drawn) get here?
Response: Y

Request: Just curious, what result did `CCCCCCCCc1ccc(Nc2ccc(CCCCCCCC)cc2)cc1` get here?
Response: N

Request: Just curious, what result did `C=Cc1ccc(O)c(OC)c1` get here?
Response: N

Request: Just curious, what result did `CCC(=O)OC/C=C(\C)CCC=C(C)C` get here?
Response: N

Request: Just curious, what result did `CCCCCN=C(N)N/N=C/c1c[nH]c2ccc(OC)cc12` get here?
Response: Y

Request: Just curious, what result did `COc1cccc(-c2ccc(/C=C\CN3CCCCCC3)cc2Cl)c1` get here?
Response: Y

Request: Just curious, what result did `Cc1ccc2nc(-c3ccc(N)cc3)sc2c1S(=O)(=O)O` get here?
Response: N

Request: Just curious, what result did `Cc1ccc(S(=O)(=O)C(I)I)cc1` get here?
Response: Y

Request: Just curious, what result did `c1ccc2occc2c1` get here?
Response: N

Request: Just curious, what result did `COc1ccc(OC)c(N=Nc2c(O)ccc3ccccc23)c1` get here?
Response: N

Request: Just curious, what result did `Nc1ccc(Oc2cccc(Oc3ccc(N)cc3)c2)cc1` get here?
Response: N

Request: Just curious, what result did `C=C(C)CCO` get here?
Response: N

Value source: PubChem BioAssay (Tox21)
